# experimental system: Substance-P receptor (Homo sapiens)
# protocol description: Binding affinity was measured against the Tachykinin receptor 1 in CHO-expressed hNK1 using [125I]SP.
reported metric: pIC50
Please note pIC50 is a logarithmic value: minus log10 of concentration in mol/L. Answer with that number alone.

Per the record, COc1ccccc1CN[C@H]1C2CCN(CC2)[C@H]1Cc1ccccc1 has pIC50 of 6.63

Measured pIC50 of CN(Cc1ccccc1)C(=O)CN1CCC[C@H](OCc2cc(C(F)(F)F)cc(C(F)(F)F)c2)[C@@H]1c1ccccc1 : 9.40

// FC(F)(F)c1cc(CO[C@H]2C3CCN(CC3)[C@H]2C(c2ccccc2)c2ccccc2)cc(C(F)(F)F)c1 : pIC50 value = 6.71

# pIC50 of Cc1cc(C)cc(CO[C@H]2C3CCN(CC3)[C@H]2C(c2ccccc2)c2ccccc2)c1 = 6.53

pIC50 measured on FC(F)(F)c1cc(CO[C@H]2CCCN(Cc3nnco3)[C@H]2c2ccccc2)cc(C(F)(F)F)c1 = 9.00

In plain terms, CC(=O)N[C@@H](Cc1csc2ccccc12)C(=O)OCc1cc(C(F)(F)F)cc(C(F)(F)F)c1 has a documented pIC50 of 7.82

pIC50 reported for this compound N[C@H](COCc1ccccc1)C(c1ccccc1)c1ccccc1 : 6.44

// O=C1O[C@@H](Cc2c[nH]c3ccccc23)C(=O)N1Cc1cccc(C(F)(F)F)c1 : pIC50 value = 5.57

====

# experimental system: Substance-P receptor (Homo sapiens)
# protocol description: Binding affinity was measured against the Tachykinin receptor 1 in human IM-9 cells using [125I]Bolton-Hunter SP.
# Type: cell-based
Lab note: anything with IC50 below 0.6 nM is marked t; values at 0.6 nM or higher are marked f.

Say whether its IC50 is strictly beneath 0.6 nM. Entry: COc1ccccc1CN1CCN2CCC[C@H]1[C@@H]2c1ccccc1
t

Is the reported IC50 for COc1ccccc1[C@@H]1CC[C@@]2(CCCN[C@H]2c2ccccc2)N1 strictly below 0.6 nM?
f

Answer whether the molecule c1ccc(CN[C@H]2C3CC4CCC(C3)N4[C@H]2C(c2ccccc2)c2ccccc2)cc1 has IC50 strictly less than 0.6 nM
f

Please indicate whether the reported IC50 of COc1ccccc1[C@@H]1CC[C@@]2(CCCN[C@H]2c2ccccc2)NC1 is strictly below 0.6 nM.
f

====

# experimental system: Substance-P receptor (Homo sapiens, UniProt P25103)
# Sequence (P25103 whole entry): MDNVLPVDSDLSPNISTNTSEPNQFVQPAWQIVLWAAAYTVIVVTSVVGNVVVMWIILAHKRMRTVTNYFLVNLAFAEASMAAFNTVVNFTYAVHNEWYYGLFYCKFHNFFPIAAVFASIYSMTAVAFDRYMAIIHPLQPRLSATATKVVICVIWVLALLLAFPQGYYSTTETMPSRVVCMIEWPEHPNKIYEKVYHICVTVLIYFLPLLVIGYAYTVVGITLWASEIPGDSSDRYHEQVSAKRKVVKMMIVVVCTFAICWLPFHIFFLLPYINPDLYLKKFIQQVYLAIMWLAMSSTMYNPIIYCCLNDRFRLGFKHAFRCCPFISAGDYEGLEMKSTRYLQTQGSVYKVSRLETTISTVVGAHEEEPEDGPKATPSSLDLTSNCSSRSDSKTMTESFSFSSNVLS
# protocol description: Binding affinity was measured against the Tachykinin receptor 1 in human IM-9 cells using [3H]SP as ligand.
# Type: cell-based
reported metric: pIC50
Please express pIC50 as -log10 of the molar concentration.

Looking up CN(Cc1ccccc1)C[C@H](Cc1ccc2ccccc2c1)NC(=O)[C@@H]1CCCC[C@@H]1NC(=O)c1c[nH]c2ccccc12 , I found its pIC50 recorded as 5.90

# compound COc1ccccc1CN[C@H]1[C@@H]2CCC[C@@H]2N[C@H]1c1ccccc1 ; its pIC50 = 8.62

Form field pIC50, entry CN(Cc1ccccc1)C(=O)[C@H](Cc1ccc2ccccc2c1)NC(=O)C1(NC(=O)c2c[nH]c3ccccc23)CCCCC1 : 8.90

Reported pIC50 of CN(Cc1ccccc1)C(=O)[C@H](Cc1ccccc1)NC(=O)[C@@H]1CCCC[C@@H]1NC(=O)c1c[nH]c2ccccc12 : 6.90

====

# experimental system: Substance-P receptor (Homo sapiens)
# protocol description: Binding affinity was measured against the Tachykinin receptor 1 in human IM-9 cells using [3H]SP as ligand.
# Assay type: cell-based
reported metric: IC50

Item: CN(Cc1ccccc1)C(=O)[C@H](Cc1ccc2ccccc2c1)NC(=O)[C@@H]1CCCC[C@@H]1NC(=O)c1c[nH]c2ccccc12 | IC50: 12.6 nM

In plain terms, CN(C(=O)Cc1ccccc1)[C@H](Cc1ccc2ccccc2c1)NC(=O)C1(NC(=O)c2c[nH]c3ccccc23)CCCCC1 has a documented IC50 of 20 nM

# compound O=C(Cc1ccccc1)N[C@H](Cc1ccc2ccccc2c1)NC(=O)[C@@H]1CCCC[C@@H]1NC(=O)c1c[nH]c2ccccc12 ; its IC50 = 316 nM

====

# experimental system: Substance-P receptor (Homo sapiens, UniProt P25103)
# protocol description: Binding affinity was measured against the Tachykinin receptor 1 in CHO-expressed hNK1 using [125I]SP.
reported metric: pIC50
Reminder that pIC50 is minus the log10 of a molar concentration.

Per the records, this molecule ( c1ccc(CO[C@H]2C3CCN(CC3)[C@H]2C(c2ccccc2)c2ccccc2)cc1 ) has pIC50 equal to 7.12

Please fill in: pIC50 reported for O=c1[nH]nc(CN2CCC[C@H](OCc3cc(C(F)(F)F)cc(C(F)(F)F)c3)[C@@H]2c2ccccc2)[nH]1 = 10.00

Value of measured pIC50 for the entry c1ccc(CN[C@H]2C3CCN(CC3)[C@H]2C(c2ccccc2)c2ccccc2)cc1 : 7.54

Data point: FC(F)(F)c1cc(CO[C@H]2CCCN(Cc3cnc[nH]3)[C@H]2c2ccccc2)cc(C(F)(F)F)c1 ; pIC50 = 9.00

Note to self: pIC50 recorded for FC(F)(F)c1cc(CO[C@H]2CCCN(Cc3nnn[nH]3)[C@H]2c2ccccc2)cc(C(F)(F)F)c1 was 7.40

Recorded result, Cc1cc(C)cc(COC[C@@H](Nc2ccccc2)C(c2ccccc2)c2ccccc2)c1 , pIC50: 7.09

Item: FC(F)(F)c1cc(CO[C@H]2CCCN(Cc3ncc[nH]3)[C@H]2c2ccccc2)cc(C(F)(F)F)c1 | pIC50: 9.30

pIC50 recorded for this molecule, CC(=O)N[C@@H](Cc1c[nH]c2ccccc12)C(=O)OCc1cc(C)cc(C)c1 , is 7.28

Just so you know, measured pIC50 for FC(F)(F)c1cc(CO[C@H]2CCCN(Cc3nnc[nH]3)[C@H]2c2ccccc2)cc(C(F)(F)F)c1 came out at 9.70

Noted for FC(F)(F)c1cc(CO[C@H]2CCCN(Cc3ccco3)[C@H]2c2ccccc2)cc(C(F)(F)F)c1 : its pIC50 reads 7.40
